EXPERIMENT: Determination of toxicity (LD50, intravenous, mice)
MEASUREMENT_CONTEXT: mouse, in vivo; intravenous administration to mice; observation 7 days; dose at which 50% of the animals die
Mark each entry label 1 if its LD50 at 168 h sits below 100 mg/kg, and label 0 for all others.

>  <STRUCTURE_SMILES>
Cc1cn(C)c2c1N(C(=O)CCN1CCCC1)c1ccccc1NC2=O

>  <CAT>
label 1

$$$$
>  <STRUCTURE_SMILES>
Cc1cn(C)c2c1N(C(=O)CN1CCCCC1)c1ccccc1NC2=O

>  <CAT>
label 1

$$$$
>  <STRUCTURE_SMILES>
Cc1cn(C)c2c1N(C(=O)CCN(C)C)c1ccccc1NC2=O

>  <CAT>
label 0

$$$$
>  <STRUCTURE_SMILES>
CCN(CC)CC(=O)N1c2ccccc2NC(=O)c2c1c(C)cn2C

>  <CAT>
label 0

$$$$
>  <STRUCTURE_SMILES>
CCCN(CCC)CC(=O)N1c2ccccc2NC(=O)c2c1c(C)cn2C

>  <CAT>
label 0

$$$$
>  <STRUCTURE_SMILES>
CCNCC(=O)N1c2ccccc2NC(=O)c2c1c(C)cn2C

>  <CAT>
label 0

$$$$

====

# therapeutic quotient (LD50/ED50) listing for each entry below
EXPERIMENT: Antiulcerogenic action (protective action on the stomach), Shay rat: pylorus ligature plus oral acetylsalicylic acid
Type: in vivo, rats (female)
MEASUREMENT_CONTEXT: rat, in vivo; LD50 i.v. mice / ED50 p.o. rats; read-out: TQ LD50/ED50 (therapeutic quotient)

>  <COMPOUND>
CCNCC(=O)N1c2ccccc2NC(=O)c2c1c(C)cn2C [compound 8]

>  <therapeutic quotient (LD50/ED50)>
25.5

$$$$
>  <COMPOUND>
Cc1cn(C)c2c1N(C(=O)CN1CCN(C)CC1)c1ccccc1NC2=O [compound 2]

>  <therapeutic quotient (LD50/ED50)>
71.4

$$$$
>  <COMPOUND>
Cc1cn(C)c2c1N(C(=O)CCN(C)C)c1ccccc1NC2=O [compound 10]

>  <therapeutic quotient (LD50/ED50)>
26.7

$$$$
>  <COMPOUND>
Cc1cn(C)c2c1N(C(=O)CN1CCCCC1)c1ccccc1NC2=O [compound 3]

>  <therapeutic quotient (LD50/ED50)>
21.1

$$$$
>  <COMPOUND>
Cc1cn(C)c2c1N(C(=O)CN1CCCC1)c1ccccc1NC2=O [compound 4]

>  <therapeutic quotient (LD50/ED50)>
45.5

$$$$
>  <COMPOUND>
CCCN(CCC)CC(=O)N1c2ccccc2NC(=O)c2c1c(C)cn2C [Serial No. 7]

>  <therapeutic quotient (LD50/ED50)>
16.9

$$$$
>  <COMPOUND>
CCN(CC)CC(=O)N1c2ccccc2NC(=O)c2c1c(C)cn2C [Serial No. 5]

>  <therapeutic quotient (LD50/ED50)>
17.5

$$$$
>  <COMPOUND>
Cc1cn(C)c2c1N(C(=O)CCN1CCCC1)c1ccccc1NC2=O [compound 9]

>  <therapeutic quotient (LD50/ED50)>
11.7

$$$$

====

System: gastric secretion
EXPERIMENT: Inhibition of gastric secretion in rats
Format: in vivo
MEASUREMENT_CONTEXT: 4 hours after administration of the antiulcerogenic ED50
Param threshold (10%) applies to Gastric Secretion, % inhibition in rats; output condition met when value >= threshold, condition not met when value < threshold.

>  <COMPOUND>
Cc1cn(C)c2c1N(C(=O)CCN1CCCC1)c1ccccc1NC2=O

>  <CAT>
condition met

$$$$
>  <COMPOUND>
CCN(CC)CC(=O)N1c2ccccc2NC(=O)c2c1c(C)cn2C

>  <CAT>
condition met

$$$$
>  <COMPOUND>
Cc1cn(C)c2c1N(C(=O)CN1CCN(C)CC1)c1ccccc1NC2=O

>  <CAT>
condition met

$$$$
>  <COMPOUND>
Cc1cn(C)c2c1N(C(=O)CN1CCCCC1)c1ccccc1NC2=O

>  <CAT>
condition not met

$$$$
>  <COMPOUND>
Cc1cn(C)c2c1N(C(=O)CCN(C)C)c1ccccc1NC2=O

>  <CAT>
condition met

$$$$
>  <COMPOUND>
CCNCC(=O)N1c2ccccc2NC(=O)c2c1c(C)cn2C

>  <CAT>
condition met

$$$$
>  <COMPOUND>
Cc1cn(C)c2c1N(C(=O)CN1CCCC1)c1ccccc1NC2=O

>  <CAT>
condition not met

$$$$
>  <COMPOUND>
CC1(C)[C@@H](OC(=O)CCC(=O)O)CC[C@]2(C)[C@H]3C(=O)C=C4[C@@H]5C[C@@](C)(C(=O)O)CC[C@]5(C)CC[C@@]4(C)[C@]3(C)CC[C@@H]12 [Serial No. 1, Carbenoxolone, reference compound]

>  <CAT>
condition not met

$$$$

====

System: gastric ulcers provoked by a pylorus ligature and acetylsalicylic acid
EXPERIMENT: Antiulcerogenic action (protective action on the stomach), Shay rat: pylorus ligature plus oral acetylsalicylic acid
Format: in vivo, rats (female)
MEASUREMENT_CONTEXT: Rattus norvegicus, po, read-out: Protective action on the stomach, ED50
VALUE_TYPE: log10(ED50) (log10 of the value in mg/kg)

>  <MOLECULE>
Cc1cn(C)c2c1N(C(=O)CCN1CCCC1)c1ccccc1NC2=O [compound 9]

>  <log10(ED50)>
0.78

$$$$
>  <MOLECULE>
CCNCC(=O)N1c2ccccc2NC(=O)c2c1c(C)cn2C [compound 8]

>  <log10(ED50)>
0.74

$$$$
>  <MOLECULE>
Cc1cn(C)c2c1N(C(=O)CCN(C)C)c1ccccc1NC2=O [compound 10]

>  <log10(ED50)>
0.65

$$$$
>  <MOLECULE>
CCCN(CCC)CC(=O)N1c2ccccc2NC(=O)c2c1c(C)cn2C [Serial No. 7]

>  <log10(ED50)>
0.81

$$$$
>  <MOLECULE>
Cc1cn(C)c2c1N(C(=O)CN1CCN(C)CC1)c1ccccc1NC2=O [compound 2]

>  <log10(ED50)>
0.15

$$$$
>  <MOLECULE>
CCN(CC)CC(=O)N1c2ccccc2NC(=O)c2c1c(C)cn2C [Serial No. 5]

>  <log10(ED50)>
0.78

$$$$
>  <MOLECULE>
Cc1cn(C)c2c1N(C(=O)CN1CCCCC1)c1ccccc1NC2=O [compound 3]

>  <log10(ED50)>
0.65

$$$$
>  <MOLECULE>
CC1(C)[C@@H](OC(=O)CCC(=O)O)CC[C@]2(C)[C@H]3C(=O)C=C4[C@@H]5C[C@@](C)(C(=O)O)CC[C@]5(C)CC[C@@]4(C)[C@]3(C)CC[C@@H]12 [Serial No. 1, Carbenoxolone, reference compound]

>  <log10(ED50)>
1.85

$$$$
>  <MOLECULE>
Cc1cn(C)c2c1N(C(=O)CN1CCCC1)c1ccccc1NC2=O [compound 4]

>  <log10(ED50)>
0.34

$$$$
